STUDY TARGET: DNA gyrase (Escherichia coli, UniProt P0AES4+P0AES6)
TEST METHOD NOTES: Inhibition of Escherichia coli DNA gyrase supercoiling incubated for 30 mins in presence of ATP
Please respond with reported IC50 for every item in the list.

What value of IC50 has been recorded for this entry: COc1ccc2nccc(OC[C@H]3CC[C@H](NC(=O)c4ccc(I)c(F)c4)CC3)c2n1
> 100 µM

What value of IC50 has been recorded for this entry: COc1ccc2nccc(OC[C@H]3CC[C@H](NC(=O)c4cc(F)c(Br)c(F)c4)CC3)c2n1
> 100 µM

What value of IC50 has been recorded for this entry: COc1ccc2nccc(OC[C@H]3CC[C@H](NC(=O)c4cc(F)c(Cl)c(F)c4)CC3)c2n1
> 100 µM
